molecular target: Biotinylated CD33 protein (UniProt P20138); test: Octet competition on biotinylated CD33; competitor 389
Sequence (P20138 18-259 limits assumed): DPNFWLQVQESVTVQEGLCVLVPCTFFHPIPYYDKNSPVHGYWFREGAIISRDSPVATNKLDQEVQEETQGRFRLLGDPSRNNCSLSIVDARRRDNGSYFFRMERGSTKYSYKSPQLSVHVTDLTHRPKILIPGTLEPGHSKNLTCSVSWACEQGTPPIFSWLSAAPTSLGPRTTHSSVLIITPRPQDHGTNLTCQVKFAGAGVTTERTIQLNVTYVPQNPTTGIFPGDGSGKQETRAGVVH
Kindly supply the reported Octet signal values for the records listed here.

A selection of reference data follows.
sdCD33_11 (VHH, sdAb from a naive llama phage library; also called 430; sdAb430) VHH: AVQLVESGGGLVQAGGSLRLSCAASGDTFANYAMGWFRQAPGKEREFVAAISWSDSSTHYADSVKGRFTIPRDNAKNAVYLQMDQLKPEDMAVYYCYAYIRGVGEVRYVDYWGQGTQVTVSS	0.0436
sdCD33_2 (VHH) VHH: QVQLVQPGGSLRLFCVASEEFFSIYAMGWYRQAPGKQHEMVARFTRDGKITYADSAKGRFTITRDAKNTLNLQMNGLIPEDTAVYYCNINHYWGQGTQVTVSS	0.584
sdCD33_5 (VHH, sdAb from a naive llama phage library; also called 413; sdAb413) VHH: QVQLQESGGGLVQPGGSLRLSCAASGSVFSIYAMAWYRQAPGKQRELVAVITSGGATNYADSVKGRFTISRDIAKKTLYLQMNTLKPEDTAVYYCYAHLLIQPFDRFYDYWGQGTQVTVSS	0.483
sdCD33_6 (VHH, sdAb from a naive llama phage library; also called 416; sdAb416) VHH: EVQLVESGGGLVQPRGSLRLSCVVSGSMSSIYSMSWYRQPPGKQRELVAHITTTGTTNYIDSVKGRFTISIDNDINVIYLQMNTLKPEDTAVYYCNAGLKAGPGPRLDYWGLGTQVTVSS	0.456
sdCD33_9 (VHH, sdAb from a naive llama phage library; also called 426; sdAb426) VHH: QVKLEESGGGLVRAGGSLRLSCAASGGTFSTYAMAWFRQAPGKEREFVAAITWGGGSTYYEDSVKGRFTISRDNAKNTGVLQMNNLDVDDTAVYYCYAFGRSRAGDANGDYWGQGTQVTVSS	0.53

Go through the list and state Octet signal for each entry.
1. sdCD33_8 (VHH, sdAb from a naive llama phage library; also called 424; sdAb424) VHH: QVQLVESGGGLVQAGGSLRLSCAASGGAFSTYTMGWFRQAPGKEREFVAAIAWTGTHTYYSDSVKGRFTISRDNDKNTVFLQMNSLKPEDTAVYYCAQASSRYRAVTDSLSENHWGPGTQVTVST
2. sdCD33_10 (VHH) VHH: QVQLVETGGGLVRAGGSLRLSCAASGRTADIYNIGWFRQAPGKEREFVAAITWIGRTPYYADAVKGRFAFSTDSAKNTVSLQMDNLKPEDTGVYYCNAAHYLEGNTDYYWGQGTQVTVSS

Given back:
1: 0.356; 2: 1.16

Go through the list and state Octet signal for each entry.
1. sdCD33_7 (VHH, sdAb from a naive llama phage library; also called 420; sdAb420) VHH: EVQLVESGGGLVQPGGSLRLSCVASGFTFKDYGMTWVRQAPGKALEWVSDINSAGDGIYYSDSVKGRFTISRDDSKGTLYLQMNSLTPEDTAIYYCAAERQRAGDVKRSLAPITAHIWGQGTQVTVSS
2. sdCD33_3 (VHH) VHH: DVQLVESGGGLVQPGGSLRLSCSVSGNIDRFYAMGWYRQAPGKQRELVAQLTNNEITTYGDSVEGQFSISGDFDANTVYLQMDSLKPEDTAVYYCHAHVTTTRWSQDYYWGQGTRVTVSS

Given back:
[0.376, 0.152]
